We begin with a simple list: items and their reported pEC50.
target: hGLP1R (Homo sapiens, UniProt P43220); construct: expressed in transfected cells; host or cells: HEK-293 cells carrying a CRE-luciferase reporter gene; experiment: hGLP1R CreLuc reporter gene assay in 0.5% and 100% plasma; format: cell-based; details: CreLuc reporter gene assay, 0.5% human plasma; read-out: hGLP1R 0.5% hP
Sequence (P43220 24-463): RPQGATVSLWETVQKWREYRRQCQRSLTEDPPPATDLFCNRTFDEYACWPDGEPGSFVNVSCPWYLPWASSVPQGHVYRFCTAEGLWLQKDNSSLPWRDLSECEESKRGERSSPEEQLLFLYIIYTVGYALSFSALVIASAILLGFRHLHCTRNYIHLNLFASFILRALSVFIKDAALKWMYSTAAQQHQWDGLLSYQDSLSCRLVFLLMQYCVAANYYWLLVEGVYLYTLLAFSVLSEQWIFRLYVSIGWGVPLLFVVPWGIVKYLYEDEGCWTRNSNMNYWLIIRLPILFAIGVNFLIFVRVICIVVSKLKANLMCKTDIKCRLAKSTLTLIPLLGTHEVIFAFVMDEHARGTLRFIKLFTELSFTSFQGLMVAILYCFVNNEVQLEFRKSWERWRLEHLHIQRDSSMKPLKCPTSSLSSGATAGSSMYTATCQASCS
Starred links: 1 amine or outer side, 2 acyl side, 3 side chain; linkers in the order of their positions; H or OH if unused. Positions of bridges follow the written chain, without caps; N, C: chain ends. Non-standard residues stand in square brackets, D forms with d. Groups on a side chain read outwards from the residue. Chains are numbered I, II in the order given. *: point of attachment. C20 diacid = O=C(O)CCCCCCCCCCCCCCCCCCC(=O)*; C18 diacid = O=C(O)CCCCCCCCCCCCCCCCC(=O)*; γGlu = O=C(O)[C@H](CCC(=O)[*:2])N[*:1]; εLys = N[C@@H](CCCCN[*:1])C(=O)[*:2]; NMeR = CN[C@@H](CCCNC(=N)N)C(=O)O; Aib = CC(C)(N)C(=O)O
Just the number, please; pEC50 means minus log10 of the concentration in mol/L.

Examples with answers:
>  <substance>
I: H-Y[Aib]EGTFTSDYSI[Aib]LEKQAQ[Aib]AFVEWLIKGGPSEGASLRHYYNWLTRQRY-NH2 / II: {C18 diacid}-EEEEEE (amide I:28-II:C) [Compound 302]

>  <value-observed>
9.82

$$$$
>  <substance>
I: H-Y[Aib]EGTFTSDYSI[Aib]LEKQAQ[Aib]AFVQWLIKGGPESGASLRHYYNWLTRQRY-NH2 / II: {C18 diacid}-EEEEE[εLys] (amide I:28-II:C) [Compound 63]

>  <value-observed>
10.10

$$$$

For the next question, use this substance.
Test item H-Y[Aib]EGTFTSDYSI[Aib]LEKQAQ[Aib]AFVEWLIK([εLys-γGlu-γGlu-γGlu-γGlu-γGlu-γGlu-C20 diacid])GGPSSGAS[Aib]RHYYNWLTRQ[NMeR]Y-NH2 [Compound 39] ; hGLP1R (Homo sapiens, UniProt P43220); reported pEC50 was 10.05
